Reference source: the supplement of paper PMC10567573

B1: CDC14A (parent)
chain: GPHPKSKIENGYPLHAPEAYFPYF

Variants of: B1
Assay text: protein stability index of a GFP-peptide fusion (GPS, HEK-293T) (PSI 1-6); higher = more stable;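 note: lentivirally expressed fusions sorted by FACS into six bins by GFP to DsRed ratio, PSI derived from sequencing read proportions per bin multiplied by bin number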
Measurement conditions: c terminus: a fixed tail appended
Reported endpoint: protein stability index

- Variant label: "P22H"
  Reported endpoint: "protein stability index"
  Measured number: 1.6
- Variant label: "H15C"
  Reported endpoint: "protein stability index"
  Measured number: 2.23
- Variant label: "P4I"
  Reported endpoint: "protein stability index"
  Measured number: 1.91
- Variant label: "Y20E"
  Reported endpoint: "protein stability index"
  Measured number: 2.76
- Variant label: "Y23S"
  Reported endpoint: "protein stability index"
  Measured number: 3.11
- Variant label: "F24N"
  Reported endpoint: "protein stability index"
  Measured number: 2.62
- Variant label: "H15P"
  Reported endpoint: "protein stability index"
  Measured number: 2.57
- Variant label: "L14H"
  Reported endpoint: "protein stability index"
  Measured number: 2.68
- Variant label: "P2C"
  Reported endpoint: "protein stability index"
  Measured number: 1.67
- Variant label: "F24T"
  Reported endpoint: "protein stability index"
  Measured number: 3.41
- Variant label: "N10G"
  Reported endpoint: "protein stability index"
  Measured number: 2.18
- Variant label: "H3M"
  Reported endpoint: "protein stability index"
  Measured number: 2.19
- Variant label: "H15F"
  Reported endpoint: "protein stability index"
  Measured number: 1.7
- Variant label: "G11C"
  Reported endpoint: "protein stability index"
  Measured number: 1.73
- Variant label: "E18C"
  Reported endpoint: "protein stability index"
  Measured number: 1.65
- Variant label: "A16G"
  Reported endpoint: "protein stability index"
  Measured number: 2.77
- Variant label: "L14V"
  Reported endpoint: "protein stability index"
  Measured number: 2.11
- Variant label: "P17Q"
  Reported endpoint: "protein stability index"
  Measured number: 2.14
- Variant label: "H3Q"
  Reported endpoint: "protein stability index"
  Measured number: 2.7
- Variant label: "L14F"
  Reported endpoint: "protein stability index"
  Measured number: 2.02
- Variant label: "P17F"
  Reported endpoint: "protein stability index"
  Measured number: 1.87
- Variant label: "K5T"
  Reported endpoint: "protein stability index"
  Measured number: 2.13
- Variant label: "S6P"
  Reported endpoint: "protein stability index"
  Measured number: 2
- Variant label: "E18N"
  Reported endpoint: "protein stability index"
  Measured number: 2.01
- Variant label: "E9M"
  Reported endpoint: "protein stability index"
  Measured number: 1.58
- Variant label: "K7M"
  Reported endpoint: "protein stability index"
  Measured number: 1.91
- Variant label: "Y20L"
  Reported endpoint: "protein stability index"
  Measured number: 3.1
- Variant label: "P2W"
  Reported endpoint: "protein stability index"
  Measured number: 2.45
- Variant label: "G11A"
  Reported endpoint: "protein stability index"
  Measured number: 2.41
- Variant label: "P2L"
  Reported endpoint: "protein stability index"
  Measured number: 2.29
- Variant label: "H15N"
  Reported endpoint: "protein stability index"
  Measured number: 2.37
- Variant label: "F24P"
  Reported endpoint: "protein stability index"
  Measured number: 3.08
- Variant label: "Y20Q"
  Reported endpoint: "protein stability index"
  Measured number: 2.55
- Variant label: "K5D"
  Reported endpoint: "protein stability index"
  Measured number: 2.08
- Variant label: "E9W"
  Reported endpoint: "protein stability index"
  Measured number: 1.77
- Variant label: "Y20R"
  Reported endpoint: "protein stability index"
  Measured number: 2.44
- Variant label: "K5N"
  Reported endpoint: "protein stability index"
  Measured number: 2.07
- Variant label: "L14I"
  Reported endpoint: "protein stability index"
  Measured number: 2.27
- Variant label: "L14K"
  Reported endpoint: "protein stability index"
  Measured number: 2.4
- Variant label: "H15Y"
  Reported endpoint: "protein stability index"
  Measured number: 1.68
- Variant label: "P22M"
  Reported endpoint: "protein stability index"
  Measured number: 2.76
- Variant label: "K5R"
  Reported endpoint: "protein stability index"
  Measured number: 2.38
- Variant label: "P17V"
  Reported endpoint: "protein stability index"
  Measured number: 1.92
- Variant label: "I8H"
  Reported endpoint: "protein stability index"
  Measured number: 2.37
- Variant label: "Y20I"
  Reported endpoint: "protein stability index"
  Measured number: 2.57
- Variant label: "P22I"
  Reported endpoint: "protein stability index"
  Measured number: 3.32
- Variant label: "H15Q"
  Reported endpoint: "protein stability index"
  Measured number: 1.93
- Variant label: "Y20T"
  Reported endpoint: "protein stability index"
  Measured number: 2.84
- Variant label: "P4K"
  Reported endpoint: "protein stability index"
  Measured number: 2.29
- Variant label: "A19W"
  Reported endpoint: "protein stability index"
  Measured number: 1.87
- Variant label: "P17N"
  Reported endpoint: "protein stability index"
  Measured number: 2.16
- Variant label: "I8Q"
  Reported endpoint: "protein stability index"
  Measured number: 2.7
- Variant label: "E9T"
  Reported endpoint: "protein stability index"
  Measured number: 2.22
- Variant label: "E18S"
  Reported endpoint: "protein stability index"
  Measured number: 2.28
- Variant label: "H3I"
  Reported endpoint: "protein stability index"
  Measured number: 2.48
- Variant label: "I8A"
  Reported endpoint: "protein stability index"
  Measured number: 2.54
- Variant label: "A19I"
  Reported endpoint: "protein stability index"
  Measured number: 2.38
- Variant label: "A16T"
  Reported endpoint: "protein stability index"
  Measured number: 2.41
- Variant label: "P13Q"
  Reported endpoint: "protein stability index"
  Measured number: 2.43
- Variant label: "K7G"
  Reported endpoint: "protein stability index"
  Measured number: 2.84
- Variant label: "P22V"
  Reported endpoint: "protein stability index"
  Measured number: 2.19
- Variant label: "P13H"
  Reported endpoint: "protein stability index"
  Measured number: 1.92
- Variant label: "E9L"
  Reported endpoint: "protein stability index"
  Measured number: 1.76
- Variant label: "N10I"
  Reported endpoint: "protein stability index"
  Measured number: 1.63
- Variant label: "E9R"
  Reported endpoint: "protein stability index"
  Measured number: 1.6
- Variant label: "P17M"
  Reported endpoint: "protein stability index"
  Measured number: 2.07
- Variant label: "Y20A"
  Reported endpoint: "protein stability index"
  Measured number: 2.76
- Variant label: "F21G"
  Reported endpoint: "protein stability index"
  Measured number: 2.8
- Variant label: "I8L"
  Reported endpoint: "protein stability index"
  Measured number: 2.03
- Variant label: "P2F"
  Reported endpoint: "protein stability index"
  Measured number: 2.8
- Variant label: "K7F"
  Reported endpoint: "protein stability index"
  Measured number: 1.99
- Variant label: "F24H"
  Reported endpoint: "protein stability index"
  Measured number: 3.12
- Variant label: "E18G"
  Reported endpoint: "protein stability index"
  Measured number: 2.3
- Variant label: "S6G"
  Reported endpoint: "protein stability index"
  Measured number: 2.14
- Variant label: "Y20W"
  Reported endpoint: "protein stability index"
  Measured number: 2.19
- Variant label: "N10K"
  Reported endpoint: "protein stability index"
  Measured number: 2.65
- Variant label: "A19D"
  Reported endpoint: "protein stability index"
  Measured number: 2.2
- Variant label: "N10S"
  Reported endpoint: "protein stability index"
  Measured number: 2.97
